# test system: T1, FLRT3 (antigen of the binning assay of Table 2) (Homo sapiens (Human), UniProt Q9NZU0 29-528, limits assumed)
# T1 construct: the whole entry for FLRT3 is named
# T1 sequence: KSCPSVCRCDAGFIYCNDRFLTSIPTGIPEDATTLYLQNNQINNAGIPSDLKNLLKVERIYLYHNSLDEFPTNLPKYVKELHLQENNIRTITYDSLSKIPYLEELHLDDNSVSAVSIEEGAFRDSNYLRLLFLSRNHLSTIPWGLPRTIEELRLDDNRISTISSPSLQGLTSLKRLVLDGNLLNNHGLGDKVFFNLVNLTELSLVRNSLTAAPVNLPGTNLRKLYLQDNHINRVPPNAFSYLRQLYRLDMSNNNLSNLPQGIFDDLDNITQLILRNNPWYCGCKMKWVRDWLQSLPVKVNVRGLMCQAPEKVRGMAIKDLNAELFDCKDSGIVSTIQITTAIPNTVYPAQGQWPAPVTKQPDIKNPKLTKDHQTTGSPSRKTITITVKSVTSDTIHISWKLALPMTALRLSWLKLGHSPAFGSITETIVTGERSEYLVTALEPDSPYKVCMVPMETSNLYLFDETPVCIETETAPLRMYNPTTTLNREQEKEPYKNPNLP
# assay overview: antibody binning matrix (Table 2); competitor: 14D3
Below is a list of entries, each paired with its recorded binning response (no name or unit printed) value.

Worked set:
# binder, recorded value
records = [
    ("14B7 (antibody, V domains shown, Variable domains only; also called FLRT3 mAb 14B7; antibody 14B7) VH: QVQLQQSGPELVKPGASVNISCKASGYAFGNSWMNWVKQRPGKGLEWIGWIYPGDGNANYNGKFKGKATLTADKSSSTAYMQLSSLTSEDSAVYFCARALYDYDGWFAYWGQGTLVTVSA VL: DIQMNQSPSSLSASLGDTITIACRASQNIDIWLSWYQQKPGSIPKLLIYKASNLHTGVPSRFSGSGSGTDFTLTISSLQPEDIATYYCLQGQSFPFTFGSGTKLEIK", 0.621),
    ("2F7 (antibody, V domains shown, Variable domains only) VH: EVQLQQSGPELVKPGASVKMSCKASGYTFTDYYMNWVKQSHGKSLEWIGRVYPSNSGASYNQKFKGKATLTVDKSLSTAYMQLNSLTSEDSAVYYCASSYYFDYWGQGTTLTVSS VL: DIVMTQSHKFMSTSIGDRVNITCKASQDVGTAVAWFQQKPGQSPKLLIYWASTRHTGVPDRFTGSGSGTDFTLTISNVQSEDLADYFCQQYSSYPTFGAGTTLELK", 0.38),
    ("14D3 (antibody, V domains shown, Variable domains only) VH: EIQLQQSGAELVKPGASVKISCKASGYSFTGYNMNWVKQSHGKSLEWIGNITPYYGSASYNQKFKGKATLTVDKSSSTAYMQLNSLTSEDSAVYYCARRSYDYDENAMDYWGQGTSVTVSS VL: DIVMTQSHKFMSTSVGDRVSITCKASQDLSTAVAWYQQKPGQSPKLLIYSASYRYTGVPDRFTGSGSGTDFTFTISSVQAEDLAVYYCQQHYSTPLTFGAGTKLELK", -0.0406),
]

Now take the following binder into account.
Query: What binning response (no name or unit printed) value was documented for this binder, 1H5 (antibody, V domains shown, Variable domains only) VH: EVQLQQSGPELVKPGASVKMSCKASGYTFTDYYMNWVKQSHGKSLEWIGRVNPSNGVTSYNQKFKGKAALTVDKSLSTAYMQLNSLTSEDSAVYYCARDFLMDYWGQGTSVTVSS VL: DIVMTQSHKFMSTSVGDRVTITCKASQDVGTAVAWYQQKPGQSPKLLIYWASTRHTGVPDRFTGSGSGTDFTLTISNVQSEDLADYFCQQYSSYPTFGGGTKLEIK ?
Response: 0.549

The reported numbers originate from patent US20230357384A1.
